Target: T1, human ARG2 (Homo sapiens, UniProt P78540, E275H/R327K)
T1 construct: His10 (after a GGG linker) (C); made in house; host or cells: E. coli BL21 (DE3)
T1 sequence (P78540 23-354 E275H/R327K): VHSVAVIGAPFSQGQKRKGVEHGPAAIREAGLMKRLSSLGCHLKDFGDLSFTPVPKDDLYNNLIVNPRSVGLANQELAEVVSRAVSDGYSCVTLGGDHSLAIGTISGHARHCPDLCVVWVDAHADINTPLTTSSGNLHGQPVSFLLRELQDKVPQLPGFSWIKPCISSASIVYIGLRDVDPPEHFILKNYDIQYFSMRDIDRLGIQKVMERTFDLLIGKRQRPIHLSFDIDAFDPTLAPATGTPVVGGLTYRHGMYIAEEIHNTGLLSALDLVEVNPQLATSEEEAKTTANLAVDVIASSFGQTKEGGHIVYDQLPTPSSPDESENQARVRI
Assay: Bio-Layer Interferometry (OctetRED) binding kinetics, human ARG2
Settings: second-generation Fab; extended assay: association 10 min, dissociation 40 min, 0.47 to 30 nM, streptavidin surface with bio-ARG2
Readout Label: ka (M⁻¹ s⁻¹)
Numbers only, in M⁻¹ s⁻¹.

Molecule	Result
C0021144: anti-ARG2 antibody, VH SEQ ID NO: 252, VL SEQ ID NO: 257 (antibody, listed as Homo sapiens, V domains shown, C0021144) VH: EVQLLESGGGLVQPGGSLRLSCAASGFTFRYDYHVWVRQAPGKGLEWVSAISGSGGSTYYADSVKGRFTISRDNSKNTLYLQMNSLRAEDTAVYYCARLRADLGLYMDLWGRGTLVTVSS VL: QSVLTQPPSVSAAPGQKVTVSCSGSSSNIGNHHVSWYQQLPGTAPKLLIYDTTVLSSGVPDRFSGSKSGTSATLGITGLQTGDEADYYCGTWDELTSNLVFGGGTKLTVL	195000

Shift focus to the following entry.
query: What value of ka has been reported for the following molecule? C0021180: anti-ARG2 antibody, VH SEQ ID NO: 332, VL SEQ ID NO: 337 (antibody, listed as Homo sapiens, V domains shown, C0021180) VH: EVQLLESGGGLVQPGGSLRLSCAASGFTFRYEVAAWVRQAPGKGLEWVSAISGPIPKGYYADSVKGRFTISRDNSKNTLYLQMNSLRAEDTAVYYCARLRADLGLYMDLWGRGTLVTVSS VL: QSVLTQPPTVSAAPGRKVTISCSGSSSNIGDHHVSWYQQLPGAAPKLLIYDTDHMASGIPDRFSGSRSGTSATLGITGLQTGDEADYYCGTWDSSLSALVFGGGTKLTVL
result: 278000
